Where these numbers come from: patent US20030229066A1

- study system: cloned human dopamine D3 receptors (Homo sapiens, UniProt P35462)
- Construct: expressed in transfected cells
- Sequence (P35462 whole entry): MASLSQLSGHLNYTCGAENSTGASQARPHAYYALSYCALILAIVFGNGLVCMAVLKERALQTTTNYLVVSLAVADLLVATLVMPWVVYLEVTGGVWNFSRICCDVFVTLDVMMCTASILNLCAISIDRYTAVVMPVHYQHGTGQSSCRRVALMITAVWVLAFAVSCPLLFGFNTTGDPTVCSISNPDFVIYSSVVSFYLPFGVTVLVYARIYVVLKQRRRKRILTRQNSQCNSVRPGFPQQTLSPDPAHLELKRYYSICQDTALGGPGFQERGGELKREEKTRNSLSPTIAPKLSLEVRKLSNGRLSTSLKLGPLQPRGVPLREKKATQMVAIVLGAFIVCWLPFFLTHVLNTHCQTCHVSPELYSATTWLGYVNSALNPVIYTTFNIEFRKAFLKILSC
- experiment notes: [N-Methyl-3H]Spiroperidol binding to cloned human dopamine D3 receptors
experimental readout: Ki (nM)
Give the value, in units of nM, as a plain number.

Would you mind telling me what Ki value was observed for O=C(NCCCCN1CCN(c2noc3ccsc23)CC1)Nc1ccc(F)cc1F [compound 829371] ?
55.2

Would you mind telling me what Ki value was observed for O=C(NCCCCN1CCCN(c2csc3cc(F)ccc23)CC1)Nc1cccc(C(F)(F)F)c1 [compound 829218] ?
0.165

Would you mind telling me what Ki value was observed for CCOc1ccc(NC(=O)NCCCCN2CCN(c3n[nH]c4ccsc34)CC2)cc1 [compound 825156] ?
63.2

Would you mind telling me what Ki value was observed for O=C(NCCCCN1CCN(c2noc3ccsc23)CC1)Nc1ccc(C(F)(F)F)cc1 [compound 829372] ?
31.9

Would you mind telling me what Ki value was observed for COc1ccc(NC(=O)NC[C@@H]2C[C@H]2CN2CCN(c3csc4cc(C(F)(F)F)ccc34)CC2)cc1 [compound 832810] ?
33.5

Would you mind telling me what Ki value was observed for O=C(NCCCCN1CCN(c2csc3cc(C(F)(F)F)ccc23)CC1)Nc1ccc(CO)cc1 [compound 833725] ?
0.602

Would you mind telling me what Ki value was observed for O=C(NCCCCN1CCN(c2nn(C(=O)Nc3ccc(OC(F)(F)F)cc3)c3ccsc23)CC1)Nc1ccc(OC(F)(F)F)cc1 [compound 825167] ?
374

* * *

- study system: cloned human dopamine D3 receptors (Homo sapiens)
- Construct: expressed in transfected cells
- experiment notes: [N-Methyl-3H]Spiroperidol binding to cloned human dopamine D3 receptors
Provide the recorded pKi for the entries that follow.
Remember, pKi is on a log scale: it is -log10 of the molar concentration.

Would you mind telling me what pKi value was observed for O=C(NCCCCN1CCN(c2noc3ccsc23)CC1)Nc1ccccc1F [compound 829393] ?
6.72

Would you mind telling me what pKi value was observed for O=C(NCCCCN1CCCN(c2noc3ccsc23)CC1)Nc1ccc(F)c(C(F)(F)F)c1 [compound 829427] ?
6.34

Would you mind telling me what pKi value was observed for Cc1cccc(NC(=O)NCCCCN2CCC(c3noc4c(C)csc34)CC2)c1 [compound 829878] ?
8.06

Would you mind telling me what pKi value was observed for CC(C)c1ccc(NC(=O)NCCCCN2CCCN(c3csc4cc(F)ccc34)CC2)cc1 [compound 829207] ?
6.85

Would you mind telling me what pKi value was observed for COc1cc(NC(=O)NCCCCN2CCCN(c3csc4cc(F)ccc34)CC2)cc(OC)c1OC [compound 829210] ?
8.70

Would you mind telling me what pKi value was observed for Cc1ccc(NC(=O)NCCCCN2CCC(c3noc4cc(C)sc34)CC2)cc1 [compound 830517] ?
8.04

Would you mind telling me what pKi value was observed for O=C(NCCCCN1CCN(c2n[nH]c3ccsc23)CC1)Nc1ccc(C(F)(F)F)cc1 [compound 825154] ?
7.45

Would you mind telling me what pKi value was observed for O=C(NCC1CC1CN1CCCN(c2csc3cc(F)ccc23)CC1)Nc1ccc(Cl)c(Cl)c1 (racemic) [compound 830409] ?
7.32

* * *

Provide the recorded Ki for the entries that follow.
- study system: cloned human dopamine D3 receptors (Homo sapiens, UniProt P35462)
- Construct: expressed in transfected cells
- experiment notes: [N-Methyl-3H]Spiroperidol binding to cloned human dopamine D3 receptors
I'd appreciate it if you wrote the number followed by its unit.

Could you share what Ki was measured for O=C(NCCCCN1CCCN(c2csc3cc(F)ccc23)CC1)Nc1c(F)cccc1C(F)(F)F , tested on cloned human dopamine D3 receptors (Homo sapiens, UniProt P35462)?
49.9 nM

Could you share what Ki was measured for O=C(NCCCCN1CCN(c2noc3ccsc23)CC1)Nc1ccc(F)cc1 , tested on cloned human dopamine D3 receptors (Homo sapiens, UniProt P35462)?
44 nM

Could you share what Ki was measured for O=C(NCCCCN1CCCN(c2csc3cc(F)ccc23)CC1)Nc1ccc(Cl)c(C(F)(F)F)c1 , tested on cloned human dopamine D3 receptors (Homo sapiens, UniProt P35462)?
47.8 nM

Could you share what Ki was measured for O=C(NCCCCN1CCN(c2noc3ccsc23)CC1)Nc1ccc(F)c(C(F)(F)F)c1 , tested on cloned human dopamine D3 receptors (Homo sapiens, UniProt P35462)?
114 nM

Could you share what Ki was measured for Cc1ccc(NC(=O)NCCCCN2CCCN(c3csc4cc(F)ccc34)CC2)cc1 , tested on cloned human dopamine D3 receptors (Homo sapiens, UniProt P35462)?
5.64 nM

Could you share what Ki was measured for COc1cccc(NC(=O)NCCCCN2CCCN(c3csc4cc(F)ccc34)CC2)c1 , tested on cloned human dopamine D3 receptors (Homo sapiens, UniProt P35462)?
0.0961 nM

Could you share what Ki was measured for O=C(NCCCCN1CCCN(c2csc3cc(F)ccc23)CC1)Nc1cc(C(F)(F)F)ccc1F , tested on cloned human dopamine D3 receptors (Homo sapiens, UniProt P35462)?
16 nM

Could you share what Ki was measured for CSc1ccc(NC(=O)NCCCCN2CCCN(c3csc4cc(F)ccc34)CC2)cc1 , tested on cloned human dopamine D3 receptors (Homo sapiens, UniProt P35462)?
5 nM

Could you share what Ki was measured for O=C(NCCCCN1CCN(c2noc3ccsc23)CC1)Nc1ccc(OC(F)(F)F)cc1 , tested on cloned human dopamine D3 receptors (Homo sapiens, UniProt P35462)?
103 nM

Could you share what Ki was measured for CSc1ccc(NC(=O)NCCCCN2CCN(c3noc4ccsc34)CC2)cc1 , tested on cloned human dopamine D3 receptors (Homo sapiens, UniProt P35462)?
54.9 nM

Could you share what Ki was measured for O=C(NCCCCN1CCCN(c2csc3cc(F)ccc23)CC1)Nc1ccc(Br)cc1 , tested on cloned human dopamine D3 receptors (Homo sapiens, UniProt P35462)?
18.1 nM

Could you share what Ki was measured for COc1cccc(NC(=O)N(CCCCN2CCC(c3noc4c(C)csc34)CC2)C(=O)Nc2cccc(OC)c2)c1 , tested on cloned human dopamine D3 receptors (Homo sapiens, UniProt P35462)?
77.1 nM

Could you share what Ki was measured for Cc1csc2c(C3CCN(CCCCNC(=O)Nc4cccc(C(F)(F)F)c4Cl)CC3)noc12 , tested on cloned human dopamine D3 receptors (Homo sapiens, UniProt P35462)?
143 nM

Could you share what Ki was measured for CC(C)(C)NC(=O)NCC1CC1CN1CCC(c2noc3ccsc23)CC1 (racemic) , tested on cloned human dopamine D3 receptors (Homo sapiens, UniProt P35462)?
43.6 nM

Could you share what Ki was measured for O=C(NCCCCN1CCN(c2noc3ccsc23)CC1)Nc1cc(F)ccc1F , tested on cloned human dopamine D3 receptors (Homo sapiens, UniProt P35462)?
87.9 nM

Could you share what Ki was measured for O=C(NCCCCN1CCCN(c2noc3ccsc23)CC1)Nc1ccc(Cl)c(C(F)(F)F)c1 , tested on cloned human dopamine D3 receptors (Homo sapiens, UniProt P35462)?
327 nM

* * *

Provide the recorded Ki for the entries that follow.
- study system: cloned human alpha-1A adrenergic receptors (α1a) (Homo sapiens, UniProt P35348)
- Construct: expressed in transfected cells
- Sequence (P35348 whole entry): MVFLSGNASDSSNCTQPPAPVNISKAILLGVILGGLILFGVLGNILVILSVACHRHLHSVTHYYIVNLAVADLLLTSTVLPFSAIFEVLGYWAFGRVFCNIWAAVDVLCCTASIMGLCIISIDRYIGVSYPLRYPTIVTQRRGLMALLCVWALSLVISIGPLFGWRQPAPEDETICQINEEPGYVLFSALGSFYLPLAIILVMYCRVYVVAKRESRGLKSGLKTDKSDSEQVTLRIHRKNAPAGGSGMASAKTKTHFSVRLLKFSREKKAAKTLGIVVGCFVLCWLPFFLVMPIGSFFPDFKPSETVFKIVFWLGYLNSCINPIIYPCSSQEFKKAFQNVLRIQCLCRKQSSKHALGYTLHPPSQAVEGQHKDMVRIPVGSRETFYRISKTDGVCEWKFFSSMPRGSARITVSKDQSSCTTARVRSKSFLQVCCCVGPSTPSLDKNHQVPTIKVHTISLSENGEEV
- experiment notes: [3H]Prazosin binding to cloned human alpha-1A adrenergic receptors expressed in CHO cells
- measurement context: Table II, pairs of 6-fluoro and 6-trifluoromethyl benzo[b]thiophenes; read-out: halpha1Ki
Give the value, in units of nM, as a plain number.

Would you mind telling me what Ki value was observed for COc1ccc(NC(=O)NCCCCN2CCN(c3csc4cc(C(F)(F)F)ccc34)CC2)cc1 ?
1220

Would you mind telling me what Ki value was observed for Cc1ccc(NC(=O)NCCCCN2CCN(c3csc4cc(C(F)(F)F)ccc34)CC2)cc1 ?
936

Would you mind telling me what Ki value was observed for CC(=O)c1ccc(NC(=O)NCCCCN2CCN(c3csc4cc(C(F)(F)F)ccc34)CC2)cc1 ?
74.9

Would you mind telling me what Ki value was observed for O=C(NCCCCN1CCN(c2csc3cc(F)ccc23)CC1)NC1CCCCC1 ?
4.5

Would you mind telling me what Ki value was observed for CC(=O)c1ccc(NC(=O)NCCCCN2CCN(c3csc4cc(F)ccc34)CC2)cc1 ?
2.2

Would you mind telling me what Ki value was observed for O=C(NCCCCN1CCN(c2csc3cc(C(F)(F)F)ccc23)CC1)Nc1ccccc1 ?
56.8

* * *

Provide the recorded Ki for the entries that follow.
- study system: cloned human dopamine D3 receptors (Homo sapiens, UniProt P35462)
- Construct: expressed in transfected cells
- experiment notes: [N-Methyl-3H]Spiroperidol binding to cloned human dopamine D3 receptors
Give the value, in units of nM, as a plain number.

Would you mind telling me what Ki value was observed for COc1cccc(NC(=O)NC[C@@H]2C[C@H]2CN2CCN(c3csc4cc(C(F)(F)F)ccc34)CC2)c1 ?
18.2

Would you mind telling me what Ki value was observed for CCOc1ccc(NC(=O)NCCCCN2CCC(c3noc4c(C)csc34)CC2)cc1 ?
27.7

Would you mind telling me what Ki value was observed for O=C(NCCCCN1CCN(c2n[nH]c3ccsc23)CC1)Nc1ccc(OC(F)(F)F)cc1 ?
84.8

Would you mind telling me what Ki value was observed for COc1ccc(NC(=O)NCC2CC2CN2CCCN(c3csc4cc(F)ccc34)CC2)cc1 (racemic) ?
3.43

Would you mind telling me what Ki value was observed for CC(=O)c1ccc(NC(=O)NCCCCN2C3CCC2CC(c2noc4cc(F)ccc24)C3)cc1 (centres unmarked) ?
179

Would you mind telling me what Ki value was observed for O=C(NCCCCN1CCN(c2csc3cc(C(F)(F)F)ccc23)CC1)Nc1ccc(C(=O)O)cc1 ?
2.1

Would you mind telling me what Ki value was observed for O=C(NCCCCN1CCCN(c2csc3cc(F)ccc23)CC1)Nc1ccc(F)c(C(F)(F)F)c1 ?
181

Would you mind telling me what Ki value was observed for CSc1ccc(NC(=O)NCCCCN2CCCN(c3noc4ccsc34)CC2)cc1 ?
233
